measurement target: human Hsp90α N-terminal domain (Homo sapiens, UniProt P07900)
readout kind: Kd

1) CC(C)c1cc(C(=O)N2Cc3ccc(CN4CCN(C)CC4)cc3C2)c(O)cc1O	< 100 nM
